- Tested on: HT-29
- TEST DETAILS: SRB colorimetric assay of cell growth and viability, HT-29
- Type: cell-based, human
- DETAILS: 48 hours exposure
Where a SMILES comes first, the peptide text is derived from it. Bridges are numbered along the chain shown (N, C = ends). [ ]: non-standard residue; d: D form. The star is where a group is joined. d(aIle) = CC[C@H](C)[C@@H](N)C(=O)O; d(aThr) = C[C@@H](O)[C@@H](N)C(=O)O; Hexanoyl(5-Me) = CC(C)CCCC(=O)*; Orn = NCCC[C@H](N)C(=O)O; Dhb = C/C=C(\N)C(=O)O
// values below are reported TGI HT-29
EXPERIMENTAL READOUT: TGI HT-29 (Molar)

molecule="C/C=C1\\NC(=O)[C@H](Cc2ccccc2)NC(=O)[C@@H](C(C)C)NC(=O)[C@@H]([C@@H](C)CC)NC(=O)[C@H](NC(=O)[C@H](NC(=O)[C@H](CCCN)NC(=O)[C@H]2CCCN2C(=O)[C@H](NC(=O)[C@@H](NC(=O)[C@@H](NC(=O)[C@@H](CCC(=O)O)NC(=O)CCCC(C)C)[C@@H](C)O)C(C)C)C(C)C)[C@@H](C)CC)[C@@H](C)OC(=O)[C@H](C(C)C)NC1=O [Compound 39, [D-Glu^13]-KF]" measured_target=HT-29 endpoint_result=2.16E−06
molecule="C/C=C1\\NC(=O)[C@H](Cc2ccccc2)NC(=O)[C@@H](C(C)C)NC(=O)[C@@H]([C@@H](C)CC)NC(=O)[C@H](NC(=O)[C@H](NC(=O)[C@H](CCCN)NC(=O)[C@H]2CCCN2C(=O)[C@H](NC(=O)[C@@H](NC(=O)[C@H](CC(C)C)NC(=O)CCCC(C)C)C(C)C)C(C)C)[C@@H](C)CC)[C@@H](C)OC(=O)[C@H](C(C)C)NC1=O [Compound 54, [Leu^12, noD-Val^13]-KF] ({Hexanoyl(5-Me)}-LV[dV][dP][Orn][d(aIle)][d(aThr)][d(aIle)][dV]F[Dhb]V; ester 7-C)" measured_target=HT-29 endpoint_result=3.51E−06
molecule="C/C=C1\\NC(=O)[C@H](Cc2ccccc2)NC(=O)[C@@H](C(C)C)NC(=O)[C@@H]([C@@H](C)CC)NC(=O)[C@H](NC(=O)[C@H](NC(=O)[C@H](CCCN)NC(=O)[C@H]2CCCN2C(=O)[C@H](NC(=O)[C@@H](NC(=O)[C@@H](NC(=O)[C@H](NC(=O)C(F)(F)C(F)(F)C(F)(F)C(F)(F)C(F)(F)C(F)(F)F)C(C)C)[C@@H](C)O)C(C)C)C(C)C)[C@@H](C)CC)[C@@H](C)OC(=O)[C@H](C(C)C)NC1=O [Compound 26, [Pfh^14]-KF]" measured_target=HT-29 endpoint_result=4.55E−07
molecule="C/C=C1\\NC(=O)[C@H](Cc2ccccc2)NC(=O)[C@@H](C(C)C)NC(=O)[C@@H]([C@@H](C)CC)NC(=O)[C@H](NC(=O)[C@H](NC(=O)[C@H](CCCN)NC(=O)[C@H]2CCCN2C(=O)[C@H](NC(=O)[C@@H](NC(=O)[C@@H](NC(=O)[C@H](NC(=O)c2ccc(C(F)(F)F)cc2)C(C)C)[C@@H](C)O)C(C)C)C(C)C)[C@@H](C)CC)[C@@H](C)OC(=O)[C@H](C(C)C)NC1=O [Compound 21, [p-CF3Bza^14]-KF]" measured_target=HT-29 endpoint_result=2.59E−07
molecule="C/C=C1\\NC(=O)[C@H](Cc2ccccc2)NC(=O)[C@@H](C(C)C)NC(=O)[C@@H]([C@@H](C)CC)NC(=O)[C@H](NC(=O)[C@H](NC(=O)[C@H](CCCN)NC(=O)[C@H]2CCCN2C(=O)[C@H](NC(=O)[C@@H](NC(=O)[C@@H](NC(=O)[C@H](NC(=O)CCCC(C)C)[C@H](C)O)[C@@H](C)O)C(C)C)C(C)C)[C@@H](C)CC)[C@@H](C)OC(=O)[C@H](C(C)C)NC1=O [Compound 41, [D-Thr^13]-KF]" measured_target=HT-29 endpoint_result=1.57E−06

====

- Tested on: DU-145
- TEST DETAILS: SRB colorimetric assay of cell growth and viability, DU-145
- Type: cell-based, human
- DETAILS: 48 hours exposure
- Description: The finality of this assay is to interrupt the growth of a “in vitro” tumor cell culture by means a continued exhibition of the cells to the sample to be testing. […] Cells are seeded in 96 well microtiter plates, at 5×10^3 cells per well in aliquots of 195 μL medium, and they are allowed to attach to the plate surface by growing in drug free medium for 18 hours. […] Optical densities are read on a automated spectrophotometric plate reader at a single wavelength of 490 nm. […]
EXPERIMENTAL READOUT: LC50 (concentration causing 50% net cell kill) (µM)

molecule="C/C=C1\\NC(=O)[C@H](Cc2ccccc2)NC(=O)[C@@H](C(C)C)NC(=O)[C@@H]([C@@H](C)CC)NC(=O)[C@H](NC(=O)[C@H](NC(=O)[C@H](CCCN)NC(=O)[C@H]2CCCN2C(=O)[C@H](NC(=O)[C@@H](NC(=O)[C@@H](NC(=O)[C@@H](CCC(N)=O)NC(=O)CCCC(C)C)[C@@H](C)O)C(C)C)C(C)C)[C@@H](C)CC)[C@@H](C)OC(=O)[C@H](C(C)C)NC1=O [Compound 40, [D-Gln^13]-KF]" endpoint_result=5.24
molecule="C/C=C1\\NC(=O)[C@H](Cc2ccccc2)NC(=O)[C@@H](C(C)C)NC(=O)[C@@H]([C@@H](C)CC)NC(=O)[C@H](NC(=O)[C@H](NC(=O)[C@H](CCCN)NC(=O)[C@H]2CCCN2C(=O)[C@H](NC(=O)[C@@H](NC(=O)[C@@H](NC(=O)[C@H](NC(=O)CCCCCCCCCCCCCCCCCCC)C(C)C)[C@@H](C)O)C(C)C)C(C)C)[C@@H](C)CC)[C@@H](C)OC(=O)[C@H](C(C)C)NC1=O [Compound 13, [Icos^14]-KF]" endpoint_result=4.04

====

- System: LoVo-Dox
- TEST DETAILS: SRB colorimetric assay of cell growth and viability, LoVo-Dox
- Type: cell-based, human
- DETAILS: 48 hours exposure; read-out: LC50 LOVO-DOX
EXPERIMENTAL READOUT: CC50

molecule="C/C=C1\\NC(=O)[C@H](Cc2ccccc2)NC(=O)[C@@H](C(C)C)NC(=O)[C@@H]([C@@H](C)CC)NC(=O)[C@H](NC(=O)[C@H](NC(=O)[C@H](CCCN)NC(=O)[C@H]2CCCN2C(=O)[C@H](NC(=O)[C@@H](NC(=O)[C@@H](NC(=O)[C@@H](CC(C)C)NC(=O)CCCC(C)C)[C@@H](C)O)C(C)C)C(C)C)[C@@H](C)CC)[C@@H](C)OC(=O)[C@H](C(C)C)NC1=O [Compound 35, [D-Leu^13]-KF]" measured_target=LoVo-Dox experimental_readout=CC50 endpoint_result="0.871 µM"
molecule="C/C=C1\\NC(=O)[C@H](Cc2ccccc2)NC(=O)[C@@H](C(C)C)NC(=O)[C@@H]([C@@H](C)CC)NC(=O)[C@H](NC(=O)[C@H](NC(=O)[C@H](CCCN)NC(=O)[C@H]2CCCN2C(=O)[C@H](NC(=O)[C@@H](NC(=O)[C@H](NC(=O)[C@H](NC(=O)CCCC(C)C)C(C)C)[C@H](C)O)C(C)C)C(C)C)[C@@H](C)CC)[C@@H](C)OC(=O)[C@H](C(C)C)NC1=O [Compound 7, [D-Thr^12]-KF]" measured_target=LoVo-Dox experimental_readout=CC50 endpoint_result="≥ 6.77 µM"
molecule="C/C=C1\\NC(=O)[C@H](Cc2ccccc2)NC(=O)[C@@H](C(C)C)NC(=O)[C@@H]([C@@H](C)CC)NC(=O)[C@H](NC(=O)[C@H](NC(=O)[C@H](CCCN)NC(=O)[C@H]2CCCN2C(=O)[C@H](NC(=O)[C@@H](NC(=O)[C@@H](NC(=O)[C@@H](CCC(=O)O)NC(=O)CCCC(C)C)[C@@H](C)O)C(C)C)C(C)C)[C@@H](C)CC)[C@@H](C)OC(=O)[C@H](C(C)C)NC1=O [Compound 39, [D-Glu^13]-KF]" measured_target=LoVo-Dox experimental_readout=CC50 endpoint_result="3.26 µM"

====

- System: IGROV-1
- TEST DETAILS: SRB colorimetric assay of cell growth and viability, IGROV-1
- Assay type: cell-based, human
- DETAILS: 48 hours exposure, SRB
Where a SMILES comes first, the peptide text is derived from it. Bridges are numbered along the chain shown (N, C = ends). [ ]: non-standard residue; d: D form. The star is where a group is joined. d(aIle) = CC[C@H](C)[C@@H](N)C(=O)O; d(aThr) = C[C@@H](O)[C@@H](N)C(=O)O; Hexanoyl(5-Me) = CC(C)CCCC(=O)*; Orn = NCCC[C@H](N)C(=O)O; Dhb = C/C=C(\N)C(=O)O
EXPERIMENTAL READOUT: LC50 (concentration causing 50% net cell killing) (nM)

compound="C/C=C1\\NC(=O)[C@H](Cc2c[nH]c3ccccc23)NC(=O)[C@@H](C(C)C)NC(=O)[C@@H]([C@@H](C)CC)NC(=O)[C@H](NC(=O)[C@H](NC(=O)[C@H](CCCN)NC(=O)[C@H]2CCCN2C(=O)[C@H](NC(=O)[C@@H](NC(=O)[C@@H](NC(=O)[C@H](NC(=O)CCCC(C)C)C(C)C)[C@@H](C)O)C(C)C)C(C)C)[C@@H](C)CC)[C@@H](C)OC(=O)[C@H](C(C)C)NC1=O [Compound 68, [Trp^3]-KF] ({Hexanoyl(5-Me)}-[dV]TV[dV][dP][Orn][d(aIle)][d(aThr)][d(aIle)][dV]W[Dhb]V; ester 8-C)" measured_target=IGROV-1 unit_text=nM endpoint_result=453
